system: MDA-MB-435 melanoma; experiment: NCI-60 one-dose screen, 48 h; details: 10 µM unless noted
About 83,000 compounds went through this panel and 20% of them were active in at least one assay; those are over-represented in the sample as a whole. Active and inactive are the calls of the source. The calls were made as follows: active = growth percent below 10; inactive = the rest.
Classes used: active, inactive

{"columns": ["test smiles", "label class"],
 "data": [
  ["CCNC(=O)c1[nH]cc(-c2ccc(OC)cc2)c1-c1cc(OC)cc(OC)c1", "inactive"],
  ["CCOC(=O)C1=C(C)NC(C)=C(C(=O)OCC)C1c1cc(Br)c(O)c(OC)c1", "active"],
  ["COC(=O)Nc1nc2ccc(C(=O)c3cccc(I)c3)cc2[nH]1", "active"],
  ["COc1cccc(NC(=O)c2cccc(-c3cc(=O)c4c(OC)c(OC)c(OC)cc4o3)c2)c1", "inactive"],
  ["NC(=O)c1cccc(-c2cc(C(N)=O)ccc2Cl)c1", "active"]
]}
